- System: MCF7 breast
- measurementProtocol: NCI-60 one-dose screen, 48 h (100 = growth as untreated, 0 = no growth, -100 = all killed)
- details: 10 µM unless noted
Compounds without any hit were thinned out: in the full panel of roughly 83,000, 20% have a hit.
Assign classes using reported growth values and the ranges band 1 (below 20%), band 2 (20% to below 70%), band 3 (70% or more), please.

compound | category
COc1ccc(-c2cn(Cc3cc4ccccc4s3)nn2)cc1OCCN1CCCCC1 | band 2
c1ccc(-c2c(-c3ccccc3)[n+](Cc3ccc4ccccc4c3)cn2Cc2ccc3ccccc3c2)cc1 | band 1
COc1cc([C@@H](CCO)C[C@H](C)c2ccc3ccccc3c2)cc(OC)c1OC | band 1
CC(C)NS(=O)(=O)/N=C1\NC(=O)NC1=C(Cl)Cl | band 3
Nc1c(Br)cc2c(c1Br)Cc1cc([N+](=O)[O-])ccc1-2 | band 2
COc1cc2ncnc(Nc3ccc(S(=O)(=O)Nc4nccs4)cc3)c2cc1OCCCN1CCCC1 | band 3

Band for "C=C1C(=O)O[C@H]2[C@H]1CC/C(COC(=O)NCc1ccc(Cn3c(=O)sn(-c4ccccc4)c3=O)cc1)=C\CC[C@@]1(C)O[C@@H]21" ?
band 1

Band for "CN1c2ccccc2S(=O)(=O)n2c(SCC(=O)Nc3nc4ccc(F)cc4s3)nnc21" ?
band 3

Band for "O=C(c1c[nH]c2ccccc12)c1n[nH]c(=S)n1-c1ccc([N+](=O)[O-])cc1" ?
band 2

Band for "COc1cc(C[C@H]2COc3cc(O)cc(O)c3C2=O)ccc1O" ?
band 2

Band for "CC1=Nc2cnc(Nc3ccc(N4CCCCC4)cc3)nc2Nc2ccccc21" ?
band 3

Band for "COC(=O)c1c(C)nc(C)c2c1C(=O)C=C(NCc1ccccc1)C2=O" ?
band 3

Band for "COC12C=C/C(=C(/C(=O)OCc3cncnc3)C(=O)CCCCCCCCC3(OC)C=C/C(=C(/C(=O)OCc4cncnc4)C(=O)CCCCCCCC1)O3)O2" ?
band 1

Band for "Cc1cccc(N2C(=O)/C(=C/C(Cl)=C/c3ccc([N+](=O)[O-])cc3)SC2=S)c1C" ?
band 1

* * *

- System: RPMI-8226 leukemia
- measurementProtocol: NCI-60 one-dose screen, 48 h
- details: 10 µM unless noted
About 83,000 compounds went through this panel and 20% of them were active in at least one assay; those are over-represented in the sample as a whole. Calls of active or inactive are those of the source. Rule for the calls: active = growth percent below 10; inactive = the rest.
Allowed answers: active, inactive

For orientation, consider the following solved cases.
compound | systemTested | category
Cc1ccc(S(=O)(=O)c2nc(-c3ccccc3)oc2SCC(N)=O)cc1 | RPMI-8226 leukemia | inactive
CNC(=O)NCC1OC(n2cnc3c(NC(=O)Nc4ccccc4)ncnc32)C2OC(=O)CC12 (stereo unspecified) | RPMI-8226 leukemia | inactive
CC(C)n1c2ccc(Br)cc2c2c3c(c4c5ccccc5ccc4c21)C(=O)NC3=O | RPMI-8226 leukemia | inactive
CCOC(=O)CC[C@H](NC(=O)c1ccc(N(C)Cc2cnc3nc(N)nc(N)c3n2)c2ccccc12)C(=O)OCC | RPMI-8226 leukemia | inactive

Which outcome was entered for the compound "O=C(O)c1cn(C2CC2)c2cc(N3CCN(C(=O)N/N=C/c4cccc5ccccc45)CC3)c(F)cc2c1=O" in this test?
inactive

Which outcome was entered for the compound "CN(C)Cc1cc(C(C)(C)C)cc(Br)c1O" in this test?
inactive

Which outcome was entered for the compound O=C(NC1CCC(Br)CC1)C1CCCC(S(=O)(=O)NC2CCCCC2)C1 (stereo unspecified) in this test?
active

Which outcome was entered for the compound "COC(=O)c1ccc2cc(OC)c(OC)cc2c1" in this test?
inactive

Which outcome was entered for the compound "C=CCN=c1sc(-c2ccc3ccccc3c2)cn1NC(=O)c1cc2ccc1CCc1ccc(cc1)CC2" in this test?
inactive

Which outcome was entered for the compound "COc1ccc(-c2cc(-c3cn(-c4cccc(Cl)c4)nc3-c3ccc(OC)cc3)on2)cc1" in this test?
inactive

Which outcome was entered for the compound "C=C(c1ccc(C(=O)O)c(F)c1)c1cc2c(cc1C)C(C)(C)CCC2(C)C" in this test?
inactive

* * *

- Tested on: TK-10 renal
- measurementProtocol: NCI-60 one-dose screen, 48 h (100 = growth as untreated, 0 = no growth, -100 = all killed)
- details: 10 µM unless noted
This is part of a sample that, as a whole, favours compounds with a hit. Of some 83,000 tested, about 20% had one in any assay.
Kindly return Fulfilled if reported growth is no lower than 40%; return Not fulfilled if it is lower.

For orientation, consider the following solved cases.
compound | category
O=C1C=CC2(O)OC/C(=C\c3ccccc3)C(O)=C2C1=O (stereo not drawn) | Not fulfilled
CC1=C2CC/C(C)=C/CC[C@]3(C)O[C@H]3CC/C(C)=C/[C@H]2OC1 | Fulfilled
CCCOC(=O)Nc1nc2ccc(SCC)cc2s1 | Fulfilled

I'd appreciate it if you could say whether "COc1ccc(Nc2ncc(C#N)c(NCCCNC(=O)C3CCC3)n2)cc1" has growth at least equal to 40%.
Fulfilled

I'd appreciate it if you could say whether "COCCn1cc(-c2nc(-c3cn(CCOC)c4ncccc34)cs2)c2cc(F)ccc21" has growth at least equal to 40%.
Not fulfilled

I'd appreciate it if you could say whether "CSc1ccc2c3c(n(CCCn4ccnc4)c(=O)c2c1)-c1ccccc1C3=O" has growth at least equal to 40%.
Fulfilled

I'd appreciate it if you could say whether "CS(=O)(=O)Nc1cc(-c2ccc3ncnc(Nc4ccc(OCc5ccccn5)c(Cl)c4)c3c2)cnc1Cl" has growth at least equal to 40%.
Not fulfilled

I'd appreciate it if you could say whether "CCOC(=O)C/C(=N\Nc1cc(=O)[nH]c2ccc(C)cc12)C(=O)OCC" has growth at least equal to 40%.
Fulfilled

I'd appreciate it if you could say whether "CC(C)(Sc1cc(C(C)(C)C)c(O)c(C(C)(C)C)c1)Sc1cc(C(C)(C)C)c(OC(=O)CCC(=O)O)c(C(C)(C)C)c1" has growth at least equal to 40%.
Fulfilled

I'd appreciate it if you could say whether "NS(=O)(=O)c1ccc(C(=O)NN2C(=O)c3ccccc3C2=O)cc1" has growth at least equal to 40%.
Fulfilled

I'd appreciate it if you could say whether "C=C(C)[C@@H]1CC[C@]2(C(=O)Nc3ccccn3)CC[C@]3(C)[C@H](CC[C@@H]4[C@@]5(C)CCCNC(C)(C)[C@@H]5CC[C@]43C)[C@@H]12" has growth at least equal to 40%.
Not fulfilled

I'd appreciate it if you could say whether COC1C(O)CC(OC2CC(OC3CC(O[C@@H]4C(=O)c5c(cc6cc(OC7CC(OC8CC(O)C(O)C(C)O8)C(O)C(C)O7)c(C)c(O)c6c5O)CC4[C@H](OC)C(=O)C(C)=O)OC(C)C3O)OC(C)C2O)OC1C (stereo partly drawn) has growth at least equal to 40%.
Not fulfilled

I'd appreciate it if you could say whether "CCOc1ncc([N+](=O)[O-])c(OCC)n1" has growth at least equal to 40%.
Fulfilled

I'd appreciate it if you could say whether "O=c1ccc2ccc(OCCN3CCCCC3)cc2o1" has growth at least equal to 40%.
Fulfilled

I'd appreciate it if you could say whether "COC(=O)[C@@]1(C)CC[C@]2(C)CC[C@]3(C)C4=CC=C5C(=CC(=O)C(O)=C5C)[C@]4(C)[C@@H](O)C[C@@]3(C)[C@@H]2C1" has growth at least equal to 40%.
Not fulfilled

I'd appreciate it if you could say whether "CCCCCCCCCCOC(=O)c1nn(C(C)=O)c2cc(C)c(C)cc12" has growth at least equal to 40%.
Fulfilled

* * *

Hi there, I'd appreciate the recorded growth for every entry that follows.
- System: CAKI-1 renal
- measurementProtocol: NCI-60 one-dose screen, 48 h (100 = growth as untreated, 0 = no growth, -100 = all killed)
- details: 10 µM unless noted
Compounds without any hit were thinned out: in the full panel of roughly 83,000, 20% have a hit. Activity calls are given as the source filed them. Rule for the calls: active = growth percent below 10; inactive = the rest.

molecule | valueObserved
COc1ccc(Oc2ccc(/C=C/C(=O)c3cc4ccccc4oc3=O)cc2)cc1 | 74.8% (inactive)
c1cc(OCCN2CCCCCC2)ccc1CNc1ccc2nc(CCC3CCCCC3)[nH]c2c1 | 42.8% (inactive)

Proceed to the following item.
With CAKI-1 renal as the test system, CCn1cc(C(=O)N/N=C/c2cccc(F)c2)c(=O)c2cc(F)c(N3CCNC(C)C3)c(F)c21 (stereo not drawn) showed growth of 66.7% (inactive)

* * *

- System: IGROV1 ovarian
- measurementProtocol: NCI-60 one-dose screen, 48 h (100 = growth as untreated, 0 = no growth, -100 = all killed)
- details: 10 µM unless noted
Compounds without any hit were thinned out: in the full panel of roughly 83,000, 20% have a hit.
The label MET is reserved for growth strictly under 60%; NOT MET covers values equal to or above it.

For orientation, consider the following solved cases.
compound | category
CCN1C(=O)N(CC)C2C1NN=c1s/c(=C\c3ccc(OC)cc3)c(=O)n12 (stereo not given) | MET
COc1ccc(-c2cc(C(=O)N3N=C(c4ccc(N)cc4)CC3c3ccc(Cl)cc3)c3ccccc3n2)cc1 (stereo not given) | MET

Does the reported growth of the following compound sit strictly below 60%? "CCCOC(=O)Nc1nc2ccc(SCC)cc2s1"
NOT MET

Does the reported growth of the following compound sit strictly below 60%? "Cc1cc(NCCCNc2ccnc3cc(Cl)ccc23)nc(Nc2ccc(C(=O)N3CCCCC3)cc2)n1"
MET
